- Test system: Plasmodium falciparum
- procedure_summary: Reduction of [3H]dihydroartemisinin uptake in chloroquine-resistant Plasmodium falciparum K1 infected erythrocytes after 90 min
- Assay type: functional, organism-based
Activity calls are given as the source filed them. The rule behind the calls is not given here.
experimental_endpoint: Activity

compound="Clc1ccc2c(N3CCN(CCCN4CCN(c5ccnc6cc(Cl)ccc56)CC4)CC3)ccnc2c1 [PIPERAQUINE]" measured_value=Active
compound=CO[C@H]1O[C@@H]2O[C@@]3(C)CC[C@H]4[C@H](C)CC[C@@H]([C@H]1C)[C@@]24OO3 measured_value=Active
compound=C[C@H]1[C@@H](O)O[C@@H]2O[C@@]3(C)CC[C@H]4[C@H](C)CC[C@@H]1[C@@]24OO3 measured_value=Active
compound="CCN(CC)CCCC(C)Nc1ccnc2cc(Cl)ccc12 (stereo unspecified)" measured_value=Active
compound=CCN(CC)Cc1cc(Nc2ccnc3cc(Cl)ccc23)ccc1O measured_value=Active
compound="OC(c1cc(C(F)(F)F)nc2c(C(F)(F)F)cccc12)C1CCCCN1 (stereo unspecified)" measured_value=Active
